# herbicidal damage, DIGSA annotations
# Tested on: Monocotyledonous and dicotyledonous test plants
# Assay Comment: Herbicidal action prior to emergence of the plants (pre-emergence action), Example B1
# Format: in vivo
# Measurement Conditions: preemergence application, 250 g/ha, DIGSA, evaluated after 4 weeks; 100%=total damage, 0%=no damage
Please state the number and follow it with the unit.

| Molecule | herbicidal damage, DIGSA |
| --- | --- |
| O=C(C1=C(O)C2CCC(C2)C1=O)c1ccc(C(F)(F)F)n2c(Cl)nnc12 (stereo not shown) | 100% |
| Cc1nnc2c(C(=O)C3=C(O)C4(CCC3=O)CC4)ccc(C(F)(F)F)n12 | 100% |
| Cc1nc2c(C(=O)C3=C(O)C4CCC(C4)C3=O)ccc(C(F)(F)F)n2n1 (stereo not shown) | 30% |

Okay, next one:
(Q) For the record CC(C)c1nnc2c(C(=O)C3=C(O)C4CCC(C4)C3=O)ccc(C(F)(F)F)n12 (stereo not shown) , what value of herbicidal damage, DIGSA is listed for Monocotyledonous and dicotyledonous test plants?
(A) 100%

# credit: patent US20100035756A1
